Biological target: opioid receptor subtype κ (Homo sapiens, UniProt P41145)
Assay: Competitive binding to opioid receptor subtype κ, [3H]Diprenorphine
Conditions: tested concentration 10^−5 mol/L; read-out: κ inhibition percentage of competitive binding
measurement type: inhibition at 10 µM

compound | measurement type | recorded measurement
N#Cc1ccc2cnn(CCCCN3CCC(c4noc5cc(F)ccc45)CC3)c2c1 [II-14] | inhibition at 10 µM | 7%
Fc1ccc2c(C3CCN(CCCOn4nnc5ccc(Cl)cc54)CC3)noc2c1 [IV-4] | inhibition at 10 µM | 37.3%
N#Cc1ccc2ccn(CCCCN3CCC(c4noc5cc(F)ccc45)CC3)c2c1 [II-9] | inhibition at 10 µM | 28.5%
Fc1ccc2c(C3CCN(CCCCn4cnc5ccc(F)cc54)CC3)noc2c1 [III-2] | inhibition at 10 µM | 44.1%

====

Tested on: Kunming mice
Experiment: Acetic acid-induced abdominal writhing test in mice
Type: in vivo
Settings: 10 mg/kg intragastric administration
Marks after values point to notes of the source that are not given here.
measurement type: Inhibition percentage of writhing response

molecule | recorded measurement
N#Cc1ccc2cnn(CCCCN3CCC(c4noc5cc(F)ccc45)CC3)c2c1 [II-14] | 77.70* %
Fc1ccc2c(C3CCN(CCCCn4ccc5ccc(F)cc54)CC3)noc2c1 [II-8] | 95.88* %
N#Cc1ccc2ccn(CCCN3CCC(c4noc5cc(F)ccc45)CC3)c2c1 [II-6] | 74.09* %
N#Cc1ccc2ccn(CCCCN3CCC(c4noc5cc(F)ccc45)CC3)c2c1 [II-9] | 100** %
Fc1ccc2c(C3CCN(CCCCn4cnc5ccc(F)cc54)CC3)noc2c1 [III-2] | 97.61* %
Fc1ccc2c(C3CCN(CCCCn4ccc5ccccc54)CC3)noc2c1 [II-3] | 98.65** %
Fc1ccc2c(C3CCN(CCCOn4nnc5ccc(Cl)cc54)CC3)noc2c1 [IV-4] | 88.33%

====

Biological target: 5-HT2A receptor (Homo sapiens)
Construct: expressed in transfected cells; host or cells: HEK293
Assay: In-vitro competitive binding to 5-HT2A receptor, [3H]-Ketanserin, transformed HEK293 cells
Details: read-out: 5-HT2A [3H]-Ketanserin inhibition percentage
Method: All test samples were dissolved in DMSO at a concentration of 0.01 mol/L, and then diluted with deionized water to 100 umol/L. HEK293 cells were transformed with plasmid carriers containing the gene coding for 5-HT2A receptor protein by using calcium phosphate transformation. […]
measurement type: inhibition at 10 µM (%)

smiles repr | recorded measurement
Fc1ccc2c(C3CCN(CCCCn4cnc5ccccc54)CC3)noc2c1 | 99.5
N#Cc1ccc2ccn(CCCCN3CCC(c4noc5cc(F)ccc45)CC3)c2c1 | 99.3
Fc1ccc2c(C3CCN(CCCn4cnc5ccccc54)CC3)noc2c1 | 99.6
Fc1ccc2c(C3CCN(CCn4ccc5ccccc54)CC3)noc2c1 | 99.5
Fc1ccc2c(C3CCN(CCOn4nnc5ccc(Cl)cc54)CC3)noc2c1 | 92.8
Fc1ccc2c(C3CCN(CCCCCn4ccc5ccccc54)CC3)noc2c1 | 99.9
Fc1ccc2c(C3CCN(CCCOn4nnc5ccc(Cl)cc54)CC3)noc2c1 | 97.4

====

System: mice
Test: Sedative effects in mice (spontaneous activities)
Assay type: in vivo
Set-up: unit not given here
Settings: single dose 20 mg/kg
Marks after values point to notes of the source that are not given here.

compound | Sedative effect
N#Cc1ccc2ccn(CCCN3CCC(c4noc5cc(F)ccc45)CC3)c2c1 [II-6] | 75**
Fc1ccc2c(C3CCN(CCCCn4cnc5ccccc54)CC3)noc2c1 [II-12] | 52*
N#Cc1ccc2ccn(OCCN3CCC(c4noc5cc(F)ccc45)CC3)c2c1 [IV-1] | 20
N#Cc1ccc2ccn(OCCCN3CCC(c4noc5cc(F)ccc45)CC3)c2c1 [IV-2] | 52*
Fc1ccc2c(C3CCN(CCCn4ncc5ccccc54)CC3)noc2c1 [II-13] | 66*
Fc1ccc2c(C3CCN(CCCCn4cnc5ccc(F)cc54)CC3)noc2c1 [III-2] | 64**
Fc1ccc2c(C3CCN(CCOn4nnc5ccc(Cl)cc54)CC3)noc2c1 [IV-3] | 67*
Fc1ccc2c(C3CCN(CCCCCn4ccc5ccccc54)CC3)noc2c1 [II-4] | 91**
Fc1ccc2c(C3CCN(CCCn4ccc5ccc(F)cc54)CC3)noc2c1 [II-5] | 65*
Fc1ccc2c(C3CCN(CCCn4cnc5ccc(F)cc54)CC3)noc2c1 [III-1] | 54*
Fc1ccc2c(C3CCN(CCCn4ccc5ccccc54)CC3)noc2c1 [II-2] | 44*
COC(=O)c1ccc2ccn(CCCN3CCC(c4noc5cc(F)ccc45)CC3)c2c1 [II-7] | 96**
Fc1ccc2c(C3CCN(CCCCn4ccc5ccc(Cl)cc54)CC3)noc2c1 [II-10] | 99**
Fc1ccc2c(C3CCN(CCCn4cnc5ccccc54)CC3)noc2c1 [II-11] | 0
Fc1ccc2c(C3CCN(CCCCn4ccc5ccc(F)cc54)CC3)noc2c1 [II-8] | 42*
N#Cc1ccc2ccn(CCCCN3CCC(c4noc5cc(F)ccc45)CC3)c2c1 [II-9] | 47*

====

Tested on: Kunming mice
Assay: Hot-plate test in mice
Type: in vivo
Settings: 40 mg/kg S.c., 1 h post dose
Marks after values point to notes of the source that are not given here.
measurement type: Percentage increase in pain threshold

smiles repr | recorded measurement
Fc1ccc2c(C3CCN(CCCOn4nnc5ccc(Cl)cc54)CC3)noc2c1 | 89.96* %
Fc1ccc2c(C3CCN(CCCCn4ccc5ccc(F)cc54)CC3)noc2c1 | 172.81* %
N#Cc1ccc2ccn(CCCCN3CCC(c4noc5cc(F)ccc45)CC3)c2c1 | 229.39** %
Fc1ccc2c(C3CCN(CCCCn4ccc5ccccc54)CC3)noc2c1 | 133%
Fc1ccc2c(C3CCN(CCCCn4cnc5ccc(F)cc54)CC3)noc2c1 | 97.22%
N#Cc1ccc2ccn(CCCN3CCC(c4noc5cc(F)ccc45)CC3)c2c1 | 72.38* %

====

Tested on: Kunming mice
Assay: Hot-plate test in mice
Format: in vivo
Details: 10 mg/kg S.c., 1 h post dose
# key: entry, value: Percentage increase in pain threshold
measurement type: Percentage increase in pain threshold (%)

molecule | assay target | measurement type | recorded measurement
N#Cc1ccc2ccn(CCCN3CCC(c4noc5cc(F)ccc45)CC3)c2c1 [II-6] | Kunming mice | Percentage increase in pain threshold | 41.11
Fc1ccc2c(C3CCN(CCCCn4ccc5ccc(F)cc54)CC3)noc2c1 [II-8] | Kunming mice | Percentage increase in pain threshold | 97.49
Fc1ccc2c(C3CCN(CCCOn4nnc5ccc(Cl)cc54)CC3)noc2c1 [IV-4] | Kunming mice | Percentage increase in pain threshold | 51.63

====

Target: 5-HT2A receptor (Homo sapiens, UniProt P28223)
Construct: expressed in transfected cells; host or cells: HEK293
Assay: In-vitro competitive binding to 5-HT2A receptor, [3H]-Ketanserin, transformed HEK293 cells
Details: final concentration 10 umol/L; read-out: 5-HT2A [3H]-Ketanserin inhibition percentage

smiles repr | inhibition at 10 µM, %
N#Cc1ccc2ccn(CCCN3CCC(c4noc5cc(F)ccc45)CC3)c2c1 | 100
Fc1ccc2c(C3CCN(CCCCn4cnc5ccc(F)cc54)CC3)noc2c1 | 99.1
N#Cc1ccc2cnn(CCCCN3CCC(c4noc5cc(F)ccc45)CC3)c2c1 | 99.7
Fc1ccc2c(C3CCN(CCCCn4ccc5ccccc54)CC3)noc2c1 | 100
Fc1ccc2c(C3CCN(CCCCn4ccc5ccc(F)cc54)CC3)noc2c1 | 100

====

Target: opioid receptor subtype μ (Homo sapiens, UniProt P35372)
Assay: Competitive binding to opioid receptor subtype μ, [3H]Diprenorphine
Conditions: tested concentration 10^−5 mol/L; read-out: μ inhibition percentage of competitive binding
Known inhibition at 10 µM of a selection of compounds

compound | assay target | inhibition at 10 µM
Fc1ccc2c(C3CCN(CCCCn4cnc5ccc(F)cc54)CC3)noc2c1 [III-2] | opioid receptor subtype μ (Homo sapiens, UniProt P35372) | 59.3%
N#Cc1ccc2cnn(CCCCN3CCC(c4noc5cc(F)ccc45)CC3)c2c1 [II-14] | opioid receptor subtype μ (Homo sapiens, UniProt P35372) | 41.9%
Fc1ccc2c(C3CCN(CCCOn4nnc5ccc(Cl)cc54)CC3)noc2c1 [IV-4] | opioid receptor subtype μ (Homo sapiens, UniProt P35372) | 34.3%
N#Cc1ccc2ccn(CCCCN3CCC(c4noc5cc(F)ccc45)CC3)c2c1 [II-9] | opioid receptor subtype μ (Homo sapiens, UniProt P35372) | 53.4%

====

Below, each entry is listed with its recorded Percentage increase in pain threshold.
Test system: Kunming mice
Experiment: Hot-plate test in mice
Type: in vivo
Conditions: 20 mg/kg S.c., 1 h post dose
Marks after values point to notes of the source that are not given here.
measurement type: Percentage increase in pain threshold

compound | measurement type | recorded measurement
Fc1ccc2c(C3CCN(CCCCn4ccc5ccccc54)CC3)noc2c1 [II-3] | Percentage increase in pain threshold | 194** %
Fc1ccc2c(C3CCN(CCCCn4ccc5ccc(F)cc54)CC3)noc2c1 [II-8] | Percentage increase in pain threshold | 160.50** %
Fc1ccc2c(C3CCN(CCCCn4cnc5ccc(F)cc54)CC3)noc2c1 [III-2] | Percentage increase in pain threshold | 172.2* %
N#Cc1ccc2ccn(CCCN3CCC(c4noc5cc(F)ccc45)CC3)c2c1 [II-6] | Percentage increase in pain threshold | 73.68* %
N#Cc1ccc2ccn(CCCCN3CCC(c4noc5cc(F)ccc45)CC3)c2c1 [II-9] | Percentage increase in pain threshold | 220.49** %
Fc1ccc2c(C3CCN(CCCOn4nnc5ccc(Cl)cc54)CC3)noc2c1 [IV-4] | Percentage increase in pain threshold | 79.36* %
